system: U2OS; assay: Multiplex assay against U2OS; type: toxicity, cell-based; details: human, 48 h, 10 µM, compound concentration 10 uM, replicate 1
Response field label takes rule met when Population Mitochondria Different-Phenotype (%) is strictly below 5% and rule not met in all other cases.

INSERT INTO assay_data (compound, targetundertest, classassignment) VALUES
  ('O=C(NCCO)c1cccc(-c2cc(Nc3ccc(OC(F)(F)F)cc3)ncn2)c1', 'U2OS', 'rule met'),
  ('Cc1ccccc1C(=O)Nc1ccc(C(=O)N2CCCC(N(C)C)c3ccccc32)cc1.Cl (configuration not stated)', 'U2OS', 'rule not met'),
  ('O=C1COc2nccc(-c3ccccc3F)c2CN1Cc1cc(C(F)(F)F)cc(C(F)(F)F)c1', 'U2OS', 'rule not met'),
  ('Cl.Clc1ccc2nsnc2c1NC1=NCCN1 [TIZANIDINE HYDROCHLORIDE]', 'U2OS', 'rule met'),
  ('C[C@H]1[C@H]2CC[C@H]3[C@@H]4CC=C5C[C@@H](N(C)C)CC[C@]5(C)[C@H]4CC[C@]23CN1C [CONESSINE]', 'U2OS', 'rule met'),
  ('COc1cc(NC(=O)CCN2CCC(OC(=O)Nc3ccccc3-c3ccccc3)CC2)c(Cl)cc1CNC[C@H](O)c1ccc(O)c2[nH]c(=O)ccc12 [BATEFENTEROL]', 'U2OS', 'rule not met'),
  ('O=C(O)c1cc2ccccc2c(Cc2c(O)c(C(=O)O)cc3ccccc23)c1O [PAMOIC ACID]', 'U2OS', 'rule met'),
  ('CSCC[C@H](NC=O)C(=O)N[C@@H](CC(C)C)C(=O)N[C@@H](Cc1ccccc1)C(=O)O', 'U2OS', 'rule met'),
  ('CNC[C@H](O)c1ccc(O)c(O)c1 [EPINEPHRINE]', 'U2OS', 'rule not met'),
  ('CCCC(CCC)C(=O)O [VALPROIC ACID]', 'U2OS', 'rule met'),
  ('c1cc(OCCCN2CCCCC2)ccc1CN1CCCCC1 [JNJ-5207852]', 'U2OS', 'rule met');

---

system: HEK-293T; experiment: Multiplex assay against HEK293T; assay type: toxicity, cell-based; settings: human, 12 h, 1 µM, compound concentration 1 uM, replicate 1
observable: Population Hoechst High Intensity Objects (%)

INSERT INTO results (compound, value) VALUES
  ('COc1ccc2c(c1)C(C(=O)N(Cc1ccc(N(C)C)cc1)c1ccc(C(C)C)cc1)CCC2.Cl (stereo not given)', 7),
  ('O=C(O)c1cc2ccccc2c(Cc2c(O)c(C(=O)O)cc3ccccc23)c1O', 7),
  ('CC[C@H]1OC(=O)[C@H](C)[C@@H](O[C@H]2C[C@@](C)(OC)[C@@H](O)[C@H](C)O2)[C@H](C)[C@@H](O[C@@H]2O[C@H](C)C[C@H](N(C)C)[C@H]2O)[C@@]2(C)CC(C)=C(O2)[C@H](C)[C@@H](O)[C@]1(C)O', 6),
  ('O=C1COc2nccc(-c3ccccc3F)c2CN1Cc1cc(C(F)(F)F)cc(C(F)(F)F)c1', 5),
  ('COc1c(C)cc(NC(=O)c2nn(Cc3ccc(F)cc3)c3c2CN(C(=O)c2ccc[nH]2)C[C@]3(C)C(N)=O)cc1C', 7);

---

The following compounds are shown together with reported Population Mitochondria Different-Phenotype (%) values.
test system: U2OS; test: Multiplex assay against U2OS; format: toxicity, cell-based; conditions: human, 12 h, 1 µM, compound concentration 1 uM, replicate 1
observable: Population Mitochondria Different-Phenotype (%)

INSERT INTO results (compound, targetundertest, value) VALUES
  ('CN(C)c1ccnc2sc3c(=O)n(N4CCCCCC4)cnc3c12', 'U2OS', 2),
  ('Cc1ccccc1C(=O)Nc1ccc(C(=O)N2CCCC(N(C)C)c3ccccc32)cc1.Cl (stereo unspecified)', 'U2OS', 3),
  ('C[C@H]1[C@H]2CC[C@H]3[C@@H]4CC=C5C[C@@H](N(C)C)CC[C@]5(C)[C@H]4CC[C@]23CN1C', 'U2OS', 1),
  ('CC(C)(C)c1ccc(S(=O)(=O)Nc2ccc(Cl)cc2C(=O)c2cc[n+]([O-])cc2)cc1', 'U2OS', 5),
  ('CN(C)CCCc1cc(C(=O)Nc2ccc(-c3ccncc3)cc2)ccc1O.Cl.Cl', 'U2OS', 0),
  ('Cc1ccc(F)cc1C(=O)Nc1ccc(C(=O)N2Cc3cccn3Cc3ccccc32)c(Cl)c1', 'U2OS', 9);
